Values compiled from patent US20260306640A1.

Quick reference for DC50 among some molecules
- System tested: KAT2A (Homo sapiens, UniProt Q92830)
- Sequence (Q92830 whole entry): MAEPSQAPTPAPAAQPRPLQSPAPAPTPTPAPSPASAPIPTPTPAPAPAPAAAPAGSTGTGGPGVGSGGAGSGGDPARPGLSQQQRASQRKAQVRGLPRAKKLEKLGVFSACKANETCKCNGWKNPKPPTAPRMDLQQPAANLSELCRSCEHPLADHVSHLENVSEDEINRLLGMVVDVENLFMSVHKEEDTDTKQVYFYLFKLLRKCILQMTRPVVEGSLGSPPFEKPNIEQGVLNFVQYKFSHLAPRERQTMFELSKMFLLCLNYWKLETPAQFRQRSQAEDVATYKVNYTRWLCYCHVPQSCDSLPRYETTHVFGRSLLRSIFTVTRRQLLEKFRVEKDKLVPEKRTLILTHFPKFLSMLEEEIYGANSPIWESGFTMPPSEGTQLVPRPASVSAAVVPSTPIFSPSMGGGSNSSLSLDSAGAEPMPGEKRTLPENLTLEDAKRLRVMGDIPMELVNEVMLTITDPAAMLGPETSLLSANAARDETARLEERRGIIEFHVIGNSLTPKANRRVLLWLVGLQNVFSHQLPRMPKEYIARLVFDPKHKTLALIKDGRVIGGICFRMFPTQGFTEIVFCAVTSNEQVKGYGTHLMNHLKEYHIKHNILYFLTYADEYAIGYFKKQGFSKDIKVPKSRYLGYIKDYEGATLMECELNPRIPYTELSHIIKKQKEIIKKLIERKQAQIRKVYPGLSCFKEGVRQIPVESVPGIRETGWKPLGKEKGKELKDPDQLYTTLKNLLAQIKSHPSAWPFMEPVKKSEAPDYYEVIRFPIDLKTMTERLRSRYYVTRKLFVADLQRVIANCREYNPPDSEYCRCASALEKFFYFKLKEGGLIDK
- Test summary: KAT2A degradation, Western Blot (Jess), NCI-H1048 cells
- Format: cell-based
- Parameters: degrader, Western blot (Jess)
- Measurement parameters: NCI-H1048 cells, KAT2A, 24 h, Western Blot, vs DMSO; read-out: KAT2A NCI-H1048 DC50
- Text: MOLM-13 cells or NCI-H1048 cells were used for Western Blot analysis of KAT2A degradation. KAT2B degradation can be measured in a similar manner with NCI-H1048 cells. […] MOLM-13 cells or NCI-H1048 cells were washed with PBS, then lysed with RIPA buffer containing 1×protease and phosphatase inhibitors (SantaCruz Biotechnologies Cat #sc-24948A). […] Protein was quantified via Bradford assay. […] Signal was detected by chemiluminescence. […]

Before answering, review these 3 worked examples.
COc1cc(N2CCC3(CCN(C(=O)c4ccc([C@H]5C[C@@H](Nc6cnn(C)c(=O)c6Br)CN(C)C5)cc4)CC3)CC2)ccc1C1CCC(=O)NC1=O (stereo partly drawn) [Compound 263]    < 1 nM
CN1C[C@H](Nc2cnn(C)c(=O)c2Cl)C[C@H](c2ccc(CN3CCN(c4cc5c(cc4F)C(=O)N(C4CCC(=O)NC4=O)C5=O)CC3)cc2)C1 (stereo partly drawn) [Compound 305]    1 to 30 nM
COc1cc(C2CCC3(CC2)CCN(C(=O)c2ccc([C@H]4C[C@@H](Nc5cnn(C)c(=O)c5Cl)CN(C)C4)cc2)CC3)ccc1C1CCC(=O)NC1=O (stereo partly drawn) [Compound 319]    < 1 nM

DC50 reported for this molecule CN1C[C@H](Nc2cnn(C)c(=O)c2Cl)C[C@H](c2ccc(C(=O)N3CC(c4ccc5c(c4)C(=O)N(C4CCC(=O)NC4=O)C5=O)C3)cc2)C1 (stereo partly drawn) [Compound 198] : 1 to 30 nM

DC50 reported for this molecule CN1C[C@H](Nc2cnn(C)c(=O)c2Br)C[C@H](c2ccc(C(=O)N3CCC4(CC3)CCN(c3ccc5c(C6CCC(=O)NC6=O)nn(C)c5c3)CC4)cc2)C1 (stereo partly drawn) [Compound 211] : < 1 nM

DC50 reported for this molecule CN1C[C@H](Nc2cnn(C)c(=O)c2Cl)C[C@H](c2ccc(C(=O)N3CCC4(CC3)CCN(c3ccc(OC5CCC(=O)NC5=O)cc3)CC4)cc2)C1 (stereo partly drawn) [Compound 362] : < 1 nM
